tested on: MDA-MB-435; assay: NCI tumour cell line growth inhibition, 48 h
Active and inactive are the calls of the source. Cut-off read from the data, not from the text of the source: active = GI50 up to about 1.1 µM and inactive = higher.
Labels: YES (active), NO (inactive)

[[record]]
compound = "C=C(Cl)COC(=O)Nc1cccc(Cl)c1"
class_assignment = "NO"

[[record]]
compound = "CS(=O)(=O)c1nc(-c2cc3c(c(S(C)(=O)=O)n2)CCC3)cc2c1CCCCC2"
class_assignment = "NO"

[[record]]
compound = "CCCCC(C(=O)N/N=C/c1ccc([N+](=O)[O-])o1)C(=O)N/N=C/c1ccc([N+](=O)[O-])o1"
class_assignment = "NO"

[[record]]
compound = "CC(=O)NC1C(OCc2ccccc2)OC(CO)C(O)C1OCC(=O)NC(C)C(=O)NC(CCC(=O)NCCCCCNc1c2ccccc2nc2cccc([N+](=O)[O-])c12)C(N)=O (stereo not drawn)"
class_assignment = "YES"

[[record]]
compound = "O=S(=O)(NC1CCCCC1)c1ccc2c(c1)OCCOCCOCCOCCO2"
class_assignment = "NO"

[[record]]
compound = "Cc1ccc(S(=O)(=O)n2cc(-c3cc(C(F)(F)F)ccn3)c3cc(Br)ccc32)cc1"
class_assignment = "NO"

[[record]]
compound = "CCC1(O)CC(OC2CC(N(C)C)C(OC3CC(O)C(OC4OC(C)C(=O)C=C4N)C(C)O3)C(C)O2)c2c(cc3c(c2O)C(=O)c2c(O)cccc2C3=O)C1C(=O)OC (stereo not drawn)"
class_assignment = "YES"

[[record]]
compound = "CCCCCCCCCCCCCCCC[N+](C)(C)Cc1ccc(F)cc1"
class_assignment = "NO"


Data origin, for the record: ChEMBL document CHEMBL1201862
